For reference, pKi measured on NS3 (Hepatitis C virus, UniProt A3EZJ3):
pKi: −log10 of the molar value. Starred links: 1 amine or outer side, 2 acyl side, 3 side chain; linkers in the order of their positions; H or OH if unused. Positions of bridges follow the written chain, without caps; N, C: chain ends. Non-standard residues stand in square brackets, D forms with d. Residues, ends and D or L forms follow the SMILES beside them. *: point of attachment. Phe(3-(CH2)7CO) = O=C([C@H](Cc1cccc(CCCCCCCC(=O)[*:3])c1)N[*:1])[*:2]; X1 = CCCC(N[*:1])C(=O)C(=O)[*:2]; Chg = N[C@H](C(=O)O)C1CCCCC1; Phg = N[C@H](C(=O)O)c1ccccc1; OtBu = CC(C)(C)O*
outcomeMeasure: pKi

>>> experimentalvalue("CCCC(NC(=O)[C@@H]1Cc2cccc(c2)/C=C/CCCCCC(=O)N[C@@H](C2CCCCC2)C(=O)N1)C(=O)C(=O)NCC(=O)N[C@H](C(=O)N(C)C)c1ccccc1 (some centres undefined)")
6.92
>>> experimentalvalue("CCCC(NC(=O)[C@@H]1Cc2cccc(c2)CCCCCCCC(=O)N[C@@H](C2CCCCC2)C(=O)N1)C(=O)C(=O)NCC(=O)N[C@H](C(=O)OC(C)(C)C)c1ccccc1 (some centres undefined) ([Chg][Phe(3-(CH2)7CO)][X1]G[Phg]-OtBu; lactam N-2)")
5.64
>>> experimentalvalue("CCCC(NC(=O)[C@@H]1Cc2cccc(c2)CCCCCCCC(=O)N[C@@H](C2CCCCC2)C(=O)N1)C(=O)C(=O)NCC(=O)N[C@H](C(=O)N(C)C)c1ccccc1 (some centres undefined) ([Chg][Phe(3-(CH2)7CO)][X1]G[Phg]-NMe2; lactam N-2)")
6.96
>>> experimentalvalue("CCCC(NC(=O)[C@@H]1Cc2cccc(c2)/C=C/CCCCCC(=O)N[C@@H](C2CCCCC2)C(=O)N1)C(=O)C(=O)NCC(=O)N[C@H](C(=O)O)c1ccccc1 (some centres undefined)")
7.08
